- TGT: Escherichia coli RppH (Escherichia coli)
- Sequence (P0A776 whole entry): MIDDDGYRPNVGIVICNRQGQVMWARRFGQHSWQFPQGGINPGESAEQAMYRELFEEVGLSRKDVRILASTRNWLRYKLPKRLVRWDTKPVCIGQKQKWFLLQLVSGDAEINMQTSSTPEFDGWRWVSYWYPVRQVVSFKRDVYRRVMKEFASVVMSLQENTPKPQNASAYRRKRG
- METHOD: Competition experiments: inhibition of RNA hydrolysis by nucleotides
- Type: biochemical
- Parameters: 0.1 mM substrate and 1 μM full-length RppH in case of nucleotides; decahistidine (N, cleaved yes); SUMO (N, cleaved yes); made in house; host or cells: E. coli BL21(DE3)
- EXPERIMENTAL CONTEXT: 0.1 mM pppAG RNA, nucleotide 0.1-5.0 mM, 10 mM Mg2+, pH 7.5, 10 min; n = 2, mean ± SE; read-out: IC50, inhibition of RppH reactivity with pppAG RNA
ENDPOINT LABEL: IC50

Tell me its IC50 given Nc1nc2c(ncn2[C@@H]2O[C@H](COP(=O)(O)OP(=O)(O)O)[C@@H](O)[C@H]2O)c(=O)[nH]1 [GDP] as the entry.
~32 µM

----------
- TGT: UniProt:P0A776
- METHOD: Competition experiments: inhibition of RNA hydrolysis by nucleotides
- Type: biochemical
- Parameters: 0.1 mM substrate and 1 μM full-length RppH in case of nucleotides; decahistidine (N, cleaved yes); SUMO (N, cleaved yes); made in house; host or cells: E. coli BL21(DE3)
- EXPERIMENTAL CONTEXT: IC50, inhibition of RppH reactivity with pppAG RNA, 0.1 mM pppAG RNA, nucleotide 0.1-5.0 mM, 10 mM Mg2+, pH 7.5, 10 min; n = 2, mean ± SE
ENDPOINT LABEL: pIC50
Units for pIC50: none; it is -log10 of a concentration expressed in mol/L.

Tell me its pIC50 given Nc1nc2c(ncn2[C@@H]2O[C@H](COP(=O)(O)OP(=O)(O)OP(=O)(O)O)[C@@H](O)[C@H]2O)c(=O)[nH]1 [GTP, guanosine triphosphate] as the entry.
2.80

----------
- TGT: Escherichia coli RppH (Escherichia coli)
- Type: biochemical
- Parameters: 0.1 mM substrate and 1 μM full-length RppH in case of nucleotides; decahistidine (N, cleaved yes); SUMO (N, cleaved yes); made in house; host or cells: E. coli BL21(DE3)
- EXPERIMENTAL CONTEXT: pH 8.5 and 9.0; 1 mM substrate, 5 μM RppH, 37°C, 1 h
ENDPOINT LABEL: hydrolysis by RppH (TLC)

COMPOUND: O=c1ccn([C@@H]2O[C@H](CO[P@@](=O)(O)O[P@@](=O)(O)OP(=O)(O)O)[C@@H](O)[C@H]2O)c(=O)[nH]1 (stereo in doubt) [UTP, uridine triphosphate]
OBSERVED MEASUREMENT: majority
--
COMPOUND: Nc1ncnc2c1ncn2[C@@H]1O[C@H](COP(=O)(O)OP(=O)(O)OP(=O)(O)O)[C@@H](O)[C@H]1O [ATP, adenosine triphosphate]
OBSERVED MEASUREMENT: all
--
COMPOUND: Nc1nc2c(ncn2[C@@H]2O[C@H](COP(=O)(O)OP(=O)(O)OP(=O)(O)O)[C@@H](O)[C@H]2O)c(=O)[nH]1 [GTP, guanosine triphosphate]
OBSERVED MEASUREMENT: majority
--
COMPOUND: Nc1ccn([C@@H]2O[C@H](COP(=O)(O)OP(=O)(O)OP(=O)(O)O)[C@@H](O)[C@H]2O)c(=O)n1 [CTP, cytidine triphosphate]
OBSERVED MEASUREMENT: majority
